Run Description: Fluorescence spectroscopy and quantum yield measurements
Type: physicochemical
Measurement Parameters: CHCl3
Measured Metric: λex (nm)
Reply numerically in nm, unit not repeated.

The cases that follow already have their λex on record.
CN(C)c1ccc2c(c1)C(=O)N(CCCCCCn1cc(CCCCN3CCC4(CC3)OCc3ccccc34)c3ccccc31)C2=O | 395
C[N+]1=C(/C=C/C=C/C=C2\N(CCCCCC(=O)NCCCCCCn3cc(CCCCN4CCC5(CC4)OCc4ccccc45)c4ccccc43)c3ccccc3C2(C)C)C(C)(C)c2ccccc21.[I-] | 657

Task: Please supply the value of reported λex for the item CN(C)c1ccc2c(c1)C(=O)N(c1ccc3ccn(CCCCN4CCC5(CC4)OCc4ccccc45)c3c1)C2=O
Result: 395

###

Run Description: Fluorescence spectroscopy and quantum yield measurements
Type: physicochemical
Measurement Parameters: CHCl3
Sorting guide: entries reporting quantum yield beneath 40% go in the True pile, the rest go in the False pile.

Solved entries:
CN(C)c1ccc2c(c1)C(=O)N(c1ccc3ccn(CCCCN4CCC5(CC4)OCc4ccccc45)c3c1)C2=O | True
C[N+]1=C(/C=C/C=C/C=C2\N(CCCCCC(=O)NCCCCCCn3cc(CCCCN4CCC5(CC4)OCc4ccccc45)c4ccccc43)c3ccccc3C2(C)C)C(C)(C)c2ccccc21.[I-] | False
CN(C)c1ccc2c(c1)C(=O)N(CCCn1cc(CCCCN3CCC4(CC3)OCc3ccccc34)c3ccccc31)C2=O | True

# next compound below
Task: Problem: For the compound C[N+]1=C(/C=C/C=C/C=C2/N(CCCCCC(=O)Nc3ccc4ccn(CCCCN5CCC6(CC5)OCc5ccccc56)c4c3)c3ccccc3C2(C)C)C(C)(C)c2ccccc21.[I-] , is quantum yield under 40%?
Result: False

###

Target System: σ2 receptor (Homo sapiens, UniProt Q5BJF2)
Sequence (Q5BJF2 whole entry): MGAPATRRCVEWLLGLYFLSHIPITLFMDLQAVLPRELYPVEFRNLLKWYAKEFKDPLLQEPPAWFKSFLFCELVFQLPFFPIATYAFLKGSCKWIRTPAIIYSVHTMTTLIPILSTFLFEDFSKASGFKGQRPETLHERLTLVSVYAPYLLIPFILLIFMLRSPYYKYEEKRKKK
Run Description: Flow cytometry saturation binding assay in MCF7 cells
Measurement Parameters: compound 2 (10 μM) as non-fluorescent σ2 reference ligand, σ1 masked by (+)-pentazocine
Measured Metric: pKd
Value format note: pKd is -log10 of concentration (mol/L); just state the number.

C[N+]1=C(/C=C/C=C/C=C2\N(CCCCCC(=O)NCCCCCCn3cc(CCCCN4CCC5(CC4)OCc4ccccc45)c4ccccc43)c3ccccc3C2(C)C)C(C)(C)c2ccccc21.[I-] | 7.71

Task: Please supply the value of reported pKd for the item C[N+]1=C(/C=C/C=C/C=C2/N(CCCCCC(=O)Nc3ccc4ccn(CCCCN5CCC6(CC5)OCc5ccccc56)c4c3)c3ccccc3C2(C)C)C(C)(C)c2ccccc21.[I-]
Result: 7.86

###

Target System: σ2 receptor (Homo sapiens)
Run Description: Flow cytometry σ2 receptor binding assay with fluorescent ligand in place of the radioligand, MCF7 cells
Set-up: This cell line was selected on the basis of its high σ2 receptor expression levels; endogenous in cells; host or cells: MCF7 (and MCF7KO, partial TMEM97 knockdown by shRNA)
Measurement Parameters: displacement of compound 19 (100 nM)
Measured Metric: Ki (nM)
Reply numerically in nM, unit not repeated.

Task: Please supply the value of reported Ki for the item COc1cc2c(cc1OC)CN(CCCN1CCc3c(OC)cccc3C1=O)CC2 [Compound 2]
Result: 4.07

###

Run Description: Fluorescence spectroscopy and quantum yield measurements
Format: physicochemical
Measurement Parameters: CHCl3
Measured Metric: λex

Task: Please supply the value of reported λex for the item C[N+]1=C(/C=C/C=C/C=C/C=C2/N(CCCCCC(=O)Nc3ccc4ccn(CCCCN5CCC6(CC5)OCc5ccccc56)c4c3)c3ccccc3C2(C)C)C(C)(C)c2ccccc21.[I-]
Result: 762 nm

###

Target System: UniProt:Q60492
Sequence (Q60492 whole entry): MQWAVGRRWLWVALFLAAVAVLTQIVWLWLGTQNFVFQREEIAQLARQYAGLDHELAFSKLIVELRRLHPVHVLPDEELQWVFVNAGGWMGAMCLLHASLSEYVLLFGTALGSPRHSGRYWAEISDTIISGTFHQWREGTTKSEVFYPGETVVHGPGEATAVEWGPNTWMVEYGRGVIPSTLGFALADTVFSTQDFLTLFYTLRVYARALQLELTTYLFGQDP
Measured Metric: pKi
Value format note: pKi is -log10 of concentration (mol/L); just state the number.

The cases that follow already have their pKi on record.
CN(C)c1ccc2c(c1)C(=O)N(CCCn1cc(CCCCN3CCC4(CC3)OCc3ccccc34)c3ccccc31)C2=O | 7.41
C[N+]1=C(/C=C/C=C/C=C2\N(CCCCCC(=O)NCCCCCCn3cc(CCCCN4CCC5(CC4)OCc4ccccc45)c4ccccc43)c3ccccc3C2(C)C)C(C)(C)c2ccccc21.[I-] | 7.29
O=C(COc1ccc(-c2ccc3n2[B-](F)(F)[N+]2=C(c4cccs4)C=CC2=C3)cc1)NCCCCCCn1cc(CCCCN2CCC3(CC2)OCc2ccccc23)c2ccccc21 | 6.33

Task: State pKi (UniProt:Q60492) of CN(C)c1ccc2c(c1)C(=O)N(c1ccc3ccn(CCCCN4CCC5(CC4)OCc4ccccc45)c3c1)C2=O .
Result: 6.53

Task: State pKi (UniProt:Q60492) of C[N+]1=C(/C=C/C=C/C=C/C=C2/N(CCCCCC(=O)Nc3ccc4ccn(CCCCN5CCC6(CC5)OCc5ccccc56)c4c3)c3ccccc3C2(C)C)C(C)(C)c2ccccc21.[I-] .
Result: 6.24

Task: State pKi (UniProt:Q60492) of C[N+]1=C(/C=C/C=C/C=C2/N(CCCCCC(=O)Nc3ccc4ccn(CCCCN5CCC6(CC5)OCc5ccccc56)c4c3)c3ccccc3C2(C)C)C(C)(C)c2ccccc21.[I-] .
Result: 6.35

Task: State pKi (UniProt:Q60492) of CN(C)c1ccc2c(c1)C(=O)N(CCCCCCn1cc(CCCCN3CCC4(CC3)OCc3ccccc34)c3ccccc31)C2=O .
Result: 7.42

Task: State pKi (UniProt:Q60492) of C[N+]1=C(/C=C/C=C/C=C/C=C2\N(CCCCCC(=O)NCCCCCCn3cc(CCCCN4CCC5(CC4)OCc4ccccc45)c4ccccc43)c3ccccc3C2(C)C)C(C)(C)c2ccccc21.[I-] .
Result: 7.05

###

Target System: σ2 receptor (Rattus norvegicus)
Construct: from tissue; host or cells: rat liver (Wistar Hannover rats, Envigo)
Sequence (Q5U3Y7 whole entry): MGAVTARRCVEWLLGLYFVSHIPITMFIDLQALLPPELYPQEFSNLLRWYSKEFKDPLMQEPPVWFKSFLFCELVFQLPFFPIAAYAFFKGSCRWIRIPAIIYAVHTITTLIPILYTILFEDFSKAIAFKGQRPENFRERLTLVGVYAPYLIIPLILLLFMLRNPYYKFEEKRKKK
Run Description: σ2 receptor radioligand binding assay with [3H]DTG, rat liver membranes
Measurement Parameters: from Ki values at σ1 and σ2
Measured Metric: σ2 selectivity over σ1

CN(C)c1ccc2c(c1)C(=O)N(CCCCCCn1cc(CCCCN3CCC4(CC3)OCc3ccccc34)c3ccccc31)C2=O | 3–10 fold

Task: Please supply the value of reported σ2 selectivity over σ1 for the item C[N+]1=C(/C=C/C=C/C=C/C=C2/N(CCCCCC(=O)Nc3ccc4ccn(CCCCN5CCC6(CC5)OCc5ccccc56)c4c3)c3ccccc3C2(C)C)C(C)(C)c2ccccc21.[I-]
Result: ~10 fold

Task: Please supply the value of reported σ2 selectivity over σ1 for the item c1ccc2c(c1)COC21CCN(CCCCn2ccc3ccccc32)CC1 [Compound 8, reference compound]
Result: 60 fold

Task: Please supply the value of reported σ2 selectivity over σ1 for the item CN(C)c1ccc2c(c1)C(=O)N(CCCn1cc(CCCCN3CCC4(CC3)OCc3ccccc34)c3ccccc31)C2=O
Result: 3–10 fold

Task: Please supply the value of reported σ2 selectivity over σ1 for the item C[N+]1=C(/C=C/C=C/C=C2/N(CCCCCC(=O)Nc3ccc4ccn(CCCCN5CCC6(CC5)OCc5ccccc56)c4c3)c3ccccc3C2(C)C)C(C)(C)c2ccccc21.[I-]
Result: ~10 fold

Task: Please supply the value of reported σ2 selectivity over σ1 for the item CN(C)c1ccc2c(c1)C(=O)N(c1ccc3ccn(CCCCN4CCC5(CC4)OCc4ccccc45)c3c1)C2=O
Result: 60 fold

###

Run Description: Fluorescence spectroscopy and quantum yield measurements
Assay type: physicochemical
Measurement Parameters: CHCl3
Measured Metric: λem (nm)
Reply numerically in nm, unit not repeated.

The cases that follow already have their λem on record.
C[N+]1=C(/C=C/C=C/C=C/C=C2/N(CCCCCC(=O)Nc3ccc4ccn(CCCCN5CCC6(CC5)OCc5ccccc56)c4c3)c3ccccc3C2(C)C)C(C)(C)c2ccccc21.[I-] | 787
C[N+]1=C(/C=C/C=C/C=C2\N(CCCCCC(=O)NCCCCCCn3cc(CCCCN4CCC5(CC4)OCc4ccccc45)c4ccccc43)c3ccccc3C2(C)C)C(C)(C)c2ccccc21.[I-] | 678
C[N+]1=C(/C=C/C=C/C=C2/N(CCCCCC(=O)Nc3ccc4ccn(CCCCN5CCC6(CC5)OCc5ccccc56)c4c3)c3ccccc3C2(C)C)C(C)(C)c2ccccc21.[I-] | 678
CN(C)c1ccc2c(c1)C(=O)N(CCCCCCn1cc(CCCCN3CCC4(CC3)OCc3ccccc34)c3ccccc31)C2=O | 490
CN(C)c1ccc2c(c1)C(=O)N(CCCn1cc(CCCCN3CCC4(CC3)OCc3ccccc34)c3ccccc31)C2=O | 490
CN(C)c1ccc2c(c1)C(=O)N(c1ccc3ccn(CCCCN4CCC5(CC4)OCc4ccccc45)c3c1)C2=O | 490

Here is another compound to look at.
Task: Please supply the value of reported λem for the item C[N+]1=C(/C=C/C=C/C=C/C=C2\N(CCCCCC(=O)NCCCCCCn3cc(CCCCN4CCC5(CC4)OCc4ccccc45)c4ccccc43)c3ccccc3C2(C)C)C(C)(C)c2ccccc21.[I-]
Result: 787
